# System Tested: Protein disulfide isomerase (PDI) (Homo sapiens, UniProt P07237)
# Sequence (P07237 18-508): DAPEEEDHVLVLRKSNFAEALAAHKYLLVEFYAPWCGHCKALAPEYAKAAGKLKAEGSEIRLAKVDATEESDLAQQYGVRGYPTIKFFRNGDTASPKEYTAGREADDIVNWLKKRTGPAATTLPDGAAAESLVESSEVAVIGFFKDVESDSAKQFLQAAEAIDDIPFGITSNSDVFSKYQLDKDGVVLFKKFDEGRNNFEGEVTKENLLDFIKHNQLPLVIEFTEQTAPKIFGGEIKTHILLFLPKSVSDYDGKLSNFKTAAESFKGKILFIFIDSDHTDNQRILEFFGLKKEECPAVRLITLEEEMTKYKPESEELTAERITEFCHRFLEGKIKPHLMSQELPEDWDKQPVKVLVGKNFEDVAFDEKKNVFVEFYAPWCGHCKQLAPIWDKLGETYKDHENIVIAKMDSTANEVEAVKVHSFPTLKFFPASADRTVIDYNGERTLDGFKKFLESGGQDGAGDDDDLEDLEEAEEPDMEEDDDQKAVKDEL
# Assay Remarks: insulin reduction assay
# Format: biochemical
Endpoint Label: pIC50
Answers are plain numbers, as −log10 of the molar value.

Please give the measured pIC50 for this molecule: "C[C@@H]1O[C@@H](OC[C@H]2O[C@@H](Oc3c(-c4ccc(O)c(O)c4)oc4cc(O)cc(O)c4c3=O)[C@H](O)[C@@H](O)[C@@H]2O)[C@H](O)[C@H](O)[C@H]1O"
5.35
